Target: T1, macaca GM-CSF (Macaca mulatta (identical in Macaca …, UniProt Q0MUT8 18-144 (Chlorocebus aethiops entry), limits assumed))
T1 chain: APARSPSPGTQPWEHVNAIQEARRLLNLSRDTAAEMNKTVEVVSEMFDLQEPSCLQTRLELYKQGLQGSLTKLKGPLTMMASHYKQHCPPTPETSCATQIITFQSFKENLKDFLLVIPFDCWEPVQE
Test: cell-based or functional assay
Below: a set of entries, each annotated with reported Fold improvement of 4K21 H93Y alone on macaca (IC50, TF-1 proliferation).
Expressed in fold, but write only the number.

binder="MSB0010595 4K21 (4K21 hVH S56V-T62S hVL S27eY-N28I-H34S-N53R-H93Y) (antibody, V domains shown) VH: EVQLVESGGGLVQPGGSLRLSCAASGFAFSAYDMSWVRQAPGKRLELVAYISSGGSVFYYPDSVKGRFTISRDNAKNSLYLQMNSLRAEDTAVYYCTRHLGFDYWGQGTLVTVSS VL: DIVMTQSPLSLPVTPGEPASISCRSSQSLVNYIGNTYLSWYLQKPGQSPQLLIYKVSRRFSGVPDRFSGSGSGTDFTLKISRVEAEDVGVYYCSQSTYVPPTFGQGTKVEIK" reported_result=2.2

Next up:
Name the recorded Fold improvement of 4K21 H93Y alone on macaca (IC50, TF-1 proliferation) for MSB0010600 4K21 (4K21 hVH S55R-T62S hVL S27eY-N28I-H34S-N53R-H93Y) (antibody, V domains shown) VH: EVQLVESGGGLVQPGGSLRLSCAASGFAFSAYDMSWVRQAPGKRLELVAYISSGGRSFYYPDSVKGRFTISRDNAKNSLYLQMNSLRAEDTAVYYCTRHLGFDYWGQGTLVTVSS VL: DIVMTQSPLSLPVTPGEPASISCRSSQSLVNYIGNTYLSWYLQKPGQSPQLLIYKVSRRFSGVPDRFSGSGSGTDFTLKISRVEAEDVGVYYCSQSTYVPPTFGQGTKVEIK .
2.6
